# protocol.text: physchem
# recorded.conditions: phosphate buffered saline, pH 7.4
recorded.endpoint: solubility at 1 h, 200 µM (µg/mL)

Some molecules with recorded solubility at 1 h, 200 µM:
molecule | solubility at 1 h, 200 µM / µg/mL
COCCN1C(=O)C2(CCN(c3nc4c(c(=O)[nH]3)CCCN4C)CC2)c2c(F)cc(F)cc21 | 6.3
CN1CCCc2c1nc(N1CCC3(CC1)C(=O)N(C)c1cc(N4CCNCC4)cc(F)c13)[nH]c2=O | 97.3
CN1CCCc2c1nc(N1CCC3(CC1)C(=O)N(CC(F)(F)F)c1cc(F)cc(F)c13)[nH]c2=O | 1.3
CN1CCN(c2cc(F)c3c(c2)N(C)C(=O)C32CCN(c3nc4c(c(=O)[nH]3)CCCN4C)CC2)CC1 | 94.5
CN1CCCc2c1nc(N1CCC3(CC1)C(=O)N(CC(O)CO)c1cc(F)cc(F)c13)[nH]c2=O (configuration not stated) | 88.2

(I) CN1CCN(CCOc2cc(F)c3c(c2)N(C)C(=O)C32CCN(c3nc4c(c(=O)[nH]3)CCCN4C)CC2)CC1
(II) CN1CCCc2c1nc(N1CCC3(CC1)C(=O)N(C)c1cc(OCCN4CCCCC4)cc(F)c13)[nH]c2=O
(III) CN1CCCc2c1nc(N1CCC3(CC1)C(=O)N(C)c1cc(F)cc(F)c13)[nH]c2=O
(IV) CN1CCCc2c1nc(N1CCC3(CC1)C(=O)N(CC#N)c1cc(F)cc(F)c13)[nH]c2=O
(V) C[C@@H]1CN(c2cc(F)c3c(c2)N(C)C(=O)C32CCN(c3nc4c(c(=O)[nH]3)CCCN4C)CC2)C[C@H](C)O1
stdin: Returns the items ordered by solubility at 1 h, 200 µM, from maximum to minimum. Rank the items, then write their labels in that order.
stdout: I, II, IV, V, III
